Origin of values: patent US10035804B2

- target_of_assay: human CYP11B2 (Homo sapiens (Human))
- Sequence (P19099 25-503): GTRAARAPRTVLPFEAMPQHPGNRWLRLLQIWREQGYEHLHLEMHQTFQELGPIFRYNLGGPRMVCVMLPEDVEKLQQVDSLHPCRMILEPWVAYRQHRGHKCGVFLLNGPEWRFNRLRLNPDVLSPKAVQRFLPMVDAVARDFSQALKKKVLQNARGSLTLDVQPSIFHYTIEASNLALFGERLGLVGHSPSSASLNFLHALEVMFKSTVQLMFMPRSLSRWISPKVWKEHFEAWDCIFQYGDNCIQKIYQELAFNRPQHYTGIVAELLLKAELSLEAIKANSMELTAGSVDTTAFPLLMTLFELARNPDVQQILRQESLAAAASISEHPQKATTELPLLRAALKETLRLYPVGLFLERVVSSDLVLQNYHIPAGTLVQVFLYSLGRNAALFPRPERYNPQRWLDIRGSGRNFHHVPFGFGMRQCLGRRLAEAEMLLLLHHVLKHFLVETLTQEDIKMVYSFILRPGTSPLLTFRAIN
- assay: G-402 cellular enzyme assay, human CYP11B2 (aldosterone release)
- condition_notes: G-402 cells expressing human CYP11B2; 1 μM Deoxycorticosterone; aldosterone in supernatant after 16 h
experimental_endpoint: pEC50
Numbers only, as −log10 of the molar value.

# entry_smiles, pEC50
records = [
    ("COc1ccc2c(n1)C(C)(C)N(c1cncc(N3CC4(CN(C(=O)c5cnccc5C)C4)C3)c1)C2=O", 10.08),
    ("CC1(C)c2cc(Cl)ccc2C(=O)N1c1cncc(N2CC3(CN(C(=O)c4cocn4)C3)C2)c1", 10.99),
    ("COc1ccncc1C(=O)N1CC2(C1)CN(c1cncc(N3C(=O)c4ccc(Cl)cc4C3(C)C)c1)C2", 10.35),
]

// for each compound in input: emit pEC50
1. Cn1cc(C(=O)N2CC3(C2)CN(c2cncc(N4C(=O)c5ccc(Cl)cc5C4(C)C)c2)C3)cn1
2. Cc1nc(C(=O)N2CC3(C2)CN(c2cncc(N4C(=O)c5ccc(Cl)cc5C4(C)C)c2)C3)co1
3. Cc1ncncc1C(=O)N1CC2(C1)CN(c1cncc(N3C(=O)c4ccc(Cl)cc4C3(C)C)c1)C2
4. Cc1cnc(C(=O)N2CC3(C2)CN(c2cncc(N4C(=O)c5ccc(Cl)cc5C4(C)C)c2)C3)cn1
5. CCn1cc(C(=O)N2CC3(C2)CN(c2cncc(N4C(=O)c5ccc(C#N)cc5C4(C)C)c2)C3)cn1
6. Cc1oncc1C(=O)N1CC2(C1)CN(c1cncc(N3C(=O)c4ccc(Cl)cc4C3(C)C)c1)C2

Marked response:
1. 11.70
2. 10.17
3. 10.13
4. 10.34
5. 11.05
6. 10.55

// for each compound in input: emit pEC50
1. Cn1cc(C(=O)N2CC3(C2)CN(c2cncc(N4CCc5cc(Cl)ccc5C4=O)c2)C3)cn1
2. Cc1cncc(C(=O)N2CC3(C2)CN(c2cncc(N4C(=O)c5ccc(Cl)cc5C4(C)C)c2)C3)n1
3. Cc1ncoc1C(=O)N1CC2(C1)CN(c1cncc(N3C(=O)c4ccc(Cl)cc4C3(C)C)c1)C2

Marked response:
1. 10.34
2. 10.24
3. 9.96

* * *

- target_of_assay: human CYP11B1 (Homo sapiens (Human))
- Sequence (P15538 25-503): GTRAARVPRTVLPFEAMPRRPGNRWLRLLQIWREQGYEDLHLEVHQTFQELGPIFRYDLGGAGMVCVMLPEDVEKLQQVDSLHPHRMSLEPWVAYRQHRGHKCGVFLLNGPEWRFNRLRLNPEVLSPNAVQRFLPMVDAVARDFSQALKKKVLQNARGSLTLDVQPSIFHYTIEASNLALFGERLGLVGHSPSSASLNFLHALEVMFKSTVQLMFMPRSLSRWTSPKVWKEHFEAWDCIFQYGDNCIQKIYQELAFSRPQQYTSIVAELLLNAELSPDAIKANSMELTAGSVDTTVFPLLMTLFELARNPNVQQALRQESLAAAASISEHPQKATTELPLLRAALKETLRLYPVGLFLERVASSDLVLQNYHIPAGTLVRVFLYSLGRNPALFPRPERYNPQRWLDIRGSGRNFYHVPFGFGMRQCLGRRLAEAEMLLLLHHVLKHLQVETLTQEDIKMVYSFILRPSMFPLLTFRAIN
- assay: G-402 cellular enzyme assay, human CYP11B1 (cortisol release)
- condition_notes: G-402 cells expressing human CYP11B1; 1 μM Deoxycortisol; cortisol in supernatant after 16 h
experimental_endpoint: EC50 (nM)
Numbers only, in nM.

// below: answered molecules
# entry_smiles, EC50 [nM]
records = [
    ("Cc1cnc(C(=O)N2CC3(C2)CN(c2cncc(N4C(=O)c5ccc(Cl)cc5C4(C)C)c2)C3)nc1", 9.55),
    ("Cc1nc(C(=O)N2CC3(C2)CN(c2cncc(N4C(=O)c5ccc(Cl)cc5C4(C)C)c2)C3)co1", 2.09),
    ("Cc1ccnc(C)c1C(=O)N1CC2(C1)CN(c1cncc(N3C(=O)c4ccc(Cl)cc4C3(C)C)c1)C2", 5.07),
]

// for each molecule in input: emit EC50
1. Cc1cnc(C(=O)N2CC3(C2)CN(c2cncc(N4C(=O)c5ccc(Cl)cc5C4(C)C)c2)C3)cn1
2. Cn1cc(C(=O)N2CC3(C2)CN(c2cncc(N4C(=O)c5ccc(Cl)cc5C45CC5)c2)C3)cn1
3. Cc1ncc(C(=O)N2CC3(C2)CN(c2cncc(N4C(=O)c5ccc(Cl)cc5C4(C)C)c2)C3)o1

Marked response:
[3.75, 7.69, 18]
